# Assay target: FhuA ΔC/Δ5L_25N (Escherichia coli, UniProt P06971)
# Sequence (P06971 194-747, stated change not applied): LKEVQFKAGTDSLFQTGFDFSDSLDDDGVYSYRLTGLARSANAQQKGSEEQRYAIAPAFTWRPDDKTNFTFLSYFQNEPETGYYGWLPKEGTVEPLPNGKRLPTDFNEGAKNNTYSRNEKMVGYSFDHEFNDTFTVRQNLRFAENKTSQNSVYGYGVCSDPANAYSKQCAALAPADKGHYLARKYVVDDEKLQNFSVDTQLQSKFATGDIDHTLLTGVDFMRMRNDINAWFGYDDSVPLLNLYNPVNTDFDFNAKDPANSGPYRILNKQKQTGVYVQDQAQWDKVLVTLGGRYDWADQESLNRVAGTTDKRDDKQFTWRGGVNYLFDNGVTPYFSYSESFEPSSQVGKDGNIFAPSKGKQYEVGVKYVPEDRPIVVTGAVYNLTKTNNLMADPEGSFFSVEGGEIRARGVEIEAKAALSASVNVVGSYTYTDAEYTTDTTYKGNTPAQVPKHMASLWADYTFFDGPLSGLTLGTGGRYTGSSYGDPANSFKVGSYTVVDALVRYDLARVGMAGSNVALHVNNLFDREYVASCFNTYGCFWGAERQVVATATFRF
# Format: binding, E. coli
# Condition description: rotational diffusion coefficient under desolvation conditions
Recorded Dr fast by entry

{"columns": ["Molecule", "Dr fast"],
 "data": [
  ["C[C@H](CCC(=O)NCCC[N+](C)(C)CCCS(=O)(=O)[O-])[C@H]1CC[C@H]2[C@@H]3[C@H](O)C[C@@H]4C[C@H](O)CC[C@]4(C)[C@H]3C[C@H](O)[C@]12C", "~6.6 10^7 s^−1"],
  ["CCCCCCCCCCO[C@@H]1O[C@H](CO)[C@@H](O[C@H]2O[C@H](CO)[C@@H](O)[C@H](O)[C@H]2O)[C@H](O)[C@H]1O [DM, n-decyl-β-D-maltoside]", "5.6 ± 0.2 10^7 s^−1"],
  ["CCCCCCCCO[C@@H]1O[C@H](CO)[C@@H](O)[C@H](O)[C@H]1O [OG, n-octyl-β-D-glucoside]", "~6.6 10^7 s^−1"],
  ["OC[C@H]1O[C@H](O[C@H]2[C@H](O)[C@@H](O)[C@H](OCCCCC3CCCCC3)O[C@@H]2CO)[C@H](O)[C@@H](O)[C@@H]1O [CYMAL-4, 4-cyclohexyl-1-Butyl-β-D-maltoside]", "5.6 ± 0.1 10^7 s^−1"]
]}
